Readings of IC50 for the listed compounds
Biological target: human GPR17 receptor (Homo sapiens)
Construct: host or cells: HEK-293
Sequence (Q13304 whole entry): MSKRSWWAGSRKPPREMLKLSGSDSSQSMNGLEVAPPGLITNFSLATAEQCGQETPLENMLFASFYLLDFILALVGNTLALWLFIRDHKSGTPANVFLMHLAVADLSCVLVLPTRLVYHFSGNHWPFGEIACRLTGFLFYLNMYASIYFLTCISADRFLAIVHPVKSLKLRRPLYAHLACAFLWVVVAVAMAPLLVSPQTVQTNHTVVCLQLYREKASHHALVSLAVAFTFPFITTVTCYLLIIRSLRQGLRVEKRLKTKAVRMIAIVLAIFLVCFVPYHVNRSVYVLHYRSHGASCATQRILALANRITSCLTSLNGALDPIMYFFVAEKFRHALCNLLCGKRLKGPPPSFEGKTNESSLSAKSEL
Assay: Calcium mobilization functional assay (Fluo-8, FLIPR TETRA) in HEK-293 hGPR17 (Gα-q assay)
Type: cell-based
Settings: antagonism of MDL29,951 (~EC80) induced Ca2+ signal; cell line (HEK-293 hGPR17 or HEK-293 Suchi5 hGPR17) not given

Input: Report IC50, nothing else, for this compound: N#Cc1cc(F)c(NS(=O)(=O)c2c[nH]c(-c3ccccn3)c2)c(F)c1
Output: 500 to 5000 nM

Input: Report IC50, nothing else, for this compound: N#Cc1cc(F)c(NS(=O)(=O)c2c[nH]c(-c3ccsn3)c2)cc1F
Output: < 500 nM

Input: Report IC50, nothing else, for this compound: N#Cc1ccc(NS(=O)(=O)c2c[nH]c(F)c2Cc2ccccc2)c(F)c1
Output: 500 to 5000 nM

Input: Report IC50, nothing else, for this compound: N#Cc1ccc(NS(=O)(=O)c2c[nH]cc2Cc2cccc(OC3CC3)c2)c(F)c1
Output: 500 to 5000 nM

Input: Report IC50, nothing else, for this compound: O=S(=O)(Nc1cc(F)c(Br)cc1F)c1c[nH]c(C2CCC2)c1
Output: < 500 nM

Input: Report IC50, nothing else, for this compound: CCOC(=O)c1ccc(NS(=O)(=O)c2c[nH]c(-c3ccccn3)c2)c(F)c1
Output: 500 to 5000 nM

Input: Report IC50, nothing else, for this compound: N#Cc1ccc(NS(=O)(=O)c2c[nH]cc2Cc2ccc(F)c(Cl)c2)c(F)c1
Output: < 500 nM

Input: Report IC50, nothing else, for this compound: N#Cc1ccc(NS(=O)(=O)c2c[nH]c(C(=O)c3ccccc3)c2)c(F)c1
Output: 5000 to 50000 nM

***
Input: Report IC50, nothing else, for this compound: COc1c(F)cccc1-c1cc(S(=O)(=O)Nc2cc(F)c(Br)cc2F)c[nH]1
Output: < 500 nM

Input: Report IC50, nothing else, for this compound: O=S(=O)(Nc1cc(F)c(OC(F)(F)F)cc1F)c1c[nH]c(-c2ccccn2)c1
Output: < 500 nM

Input: Report IC50, nothing else, for this compound: O=S(=O)(Nc1cc(F)c(OC(F)F)cc1F)c1c[nH]cc1-c1cccc(F)c1
Output: < 500 nM

Measured values drawn from patent US20240299385A1 for this set.
